tested on: U-251; test: NCI tumour cell line growth inhibition, 48 h
Active and inactive are the calls of the source. Cut-off read from the data, not from the text of the source: active = GI50 up to about 1.1 µM and inactive = higher.
Labels: T for active, F for inactive

# molecule, target-of-assay, cat
measured = [
    ("CC(=O)OCC1OC(n2c(C)c(C)cc(C#N)c2=S)C(OC(C)=O)C(OC(C)=O)C1OC(C)=O (stereo not given)", "U-251", "F"),
    ("CCOC(=O)[C@H]1Nc2c(cccc2[N+](=O)[O-])[C@H]2OCC[C@@H]12", "U-251", "F"),
    ("CN(C)CC1CCCC/C1=N/OC(=O)c1ccc(Cl)c(Cl)c1 (stereo not given)", "U-251", "F"),
    ("COc1nc2c(c(=O)n1C)N=C(c1ccc(Cl)cc1)CC(c1ccccc1)N2 (stereo not given)", "U-251", "F"),
    ("O=C(O)C(Sc1ccc(Cl)cc1)Sc1ccc(Cl)cc1", "U-251", "F"),
    ("N=C(N)NS(=O)(=O)c1ccc(Nc2c3ccccc3nc3c(C(=O)N4CCN(CCO)CC4)ccc(Cl)c23)cc1", "U-251", "F"),
    ("COc1ccc(/C=C/CN(C)CCc2ccccc2)cc1OC", "U-251", "F"),
    ("Cc1cc(N(CCC#N)CCC#N)ccc1C(/N=N/c1ccc([N+](=O)[O-])cc1)=N\\NC(=O)c1cc(Cl)ccc1C(=O)c1ccccc1", "U-251", "F"),
    ("Nc1ncnc2c1ncn2C1CCC(CP(=O)(O)O)C1 (stereo not given)", "U-251", "F"),
    ("CCOc1ccc([Se][Se]c2ccc(OCC)cc2)cc1", "U-251", "F"),
    ("O=C1c2ccccc2CC12Cc1ccc3c(c1C2=O)CCCC3 (stereo not given)", "U-251", "F"),
    ("CCOC(=O)C(NC(=O)c1nc[nH]c1[N+](=O)[O-])C(C)C (stereo not given)", "U-251", "F"),
    ("S=C(N/N=C(/c1ccccc1)c1ccccn1)Nc1cccc(Cl)c1", "U-251", "T"),
    ("CC(=O)CC(=O)Nc1ccccc1[N+](=O)[O-]", "U-251", "F"),
    ("COC1CC2C=CC3C4OC2(/C(C)=C/C(C)C(C(C)O)OC1=O)C3C(O)C(C)C4OC(=O)c1ccc[nH]1 (stereo not given)", "U-251", "F"),
    ("COC(=O)C12C3C4C5(C(=O)OC)C(C1C35C(=O)N(C(C)C)C(C)C)C42C(=O)N(C(C)C)C(C)C (stereo not given)", "U-251", "F"),
    ("COc1ccc(/N=C(/[N-]n2c(=O)c(C)nn(C)c2=S)N(c2ccc(OC)cc2)c2n[n+]3c(=O)c(C)nn(C)c3s2)cc1", "U-251", "F"),
    ("COc1nc(-c2cn(S(=O)(=O)c3ccc(C)cc3)c3ccc(Br)cc23)cc(C(F)(F)F)c1C#N", "U-251", "F"),
    ("CC(=O)c1c2c(cc3c1CC1(Cc4cc5c(cc4C1)CCCC5)C3)CCCC2", "U-251", "F"),
    ("COC(=O)C(=O)C(C(=O)C(=O)Nc1ccc([N+](=O)[O-])cc1C#N)c1nc2ccc([N+](=O)[O-])cc2nc1O (stereo not given)", "U-251", "F"),
    ("O=C(O)c1cccc(/N=N/c2c(S(=O)(=O)O)ccc3c2C(=O)c2ccccc2C3=O)c1O", "U-251", "F"),
    ("COc1ccc(-c2cc(-c3ccco3)c(C#N)c(=O)n2C2OC(OC(=O)c3ccccc3)C(OC(=O)c3ccccc3)C2OC(=O)c2ccccc2)cc1 (stereo not given)", "U-251", "F"),
    ("O=c1c(O)c(-c2ccccc2)oc2c(CP(=O)(O)O)cccc12", "U-251", "F"),
    ("COC(=O)C1[C@H](C(=O)OC)C1(Br)CBr (stereo not given in full)", "U-251", "F"),
    ("O=c1[nH]/c(=C/c2ccc(OCc3ccccc3)cn2)c(=O)[nH]/c1=C/c1ccc(O)cc1", "U-251", "T"),
    ("C=C1c2nc3ccccc3n2C=C(c2ccccc2)N1c1ccc(OC)cc1", "U-251", "F"),
    ("Cc1cc(N=C2C=C(Br)C(=O)C(Br)=C2)cc(CN(CC(=O)O)CC(=O)O)c1O", "U-251", "F"),
    ("NC(=O)/N=C1\\NC(Cc2ccccc2)C(=O)N1Cc1ccccc1 (stereo not given)", "U-251", "F"),
    ("Cc1ccc(CS(=O)(=O)C/N=C2\\Sc3ccccc3N\\C2=C/C(=O)c2ccc(Cl)cc2)cc1", "U-251", "F"),
    ("CCOC(=O)C(Cc1cn(S(=O)(=O)c2ccccc2)c2ccccc12)(NC(C)=O)C(=O)OCC", "U-251", "F"),
]

* * *

Items are presented alongside their recorded GI50.
tested on: MDA-MB-231; assay: NCI tumour cell line growth inhibition, 48 h
Active and inactive are the calls of the source. Cut-off read from the data, not from the text of the source: active = GI50 up to about 1.1 µM and inactive = higher. Residues, ends and D or L forms follow the SMILES beside them. *: point of attachment. Cbz = O=C(OCc1ccccc1)*
measure-name: GI50

# compound, result
records = [
    ("c1ccc(-c2nc(-c3ccccc3)c(-c3ccccc3)[nH]2)cc1", "> 72.6 µM (inactive)"),
    ("C=C1C(=O)O[C@@H]2[C@H]1C[C@@H](O)[C@H](C)[C@@](O)(C(=O)/C=C/C)[C@H]2OC(=O)C(C)CC (some centres undefined)", "5.79 µM (inactive)"),
    ("CCCCCCc1ccc(C(=O)NO)cc1", "95.7 µM (inactive)"),
    ("Cc1nn(C(=O)Cc2ccccc2)c2c1C(c1ccccc1)SC(=N)N2 (centres undefined)", "> 100 µM (inactive)"),
    ("N#Cc1c2c([nH]c(=O)c1C#N)CCCC2", "> 100 µM (inactive)"),
    ("O=c1c2ccc(Cl)cc2oc2c(CNc3ccc(S(=O)(=O)Nc4nccs4)cc3)cccc12", "98.6 µM (inactive)"),
    ("O=C1/C(=C/c2ccccc2)N=C(c2ccccc2)N1n1c(-c2ccccc2)nc2ccccc2c1=O", "> 100 µM (inactive)"),
    ("O=C(O)C1C2C=CC(C2)C1c1ccccc1 (centres undefined)", "> 100 µM (inactive)"),
    ("Nc1ccc(I)cn1", "> 100 µM (inactive)"),
    ("Br[C@@H]1[C@H]2c3nc4ccccc4nc3[C@@H]1C[C@H]2Br", "> 100 µM (inactive)"),
    ("Cc1cn(C2CC(O)C(COP(=O)(O)OC3CC(n4c[n+]([BH2-]C#N)c5c(=O)[nH]c(N)nc54)OC3CO)O2)c(=O)[nH]c1=O (centres undefined)", "> 100 µM (inactive)"),
    ("O=C(/C=C/c1cccc(Oc2ccccc2)c1)NCc1ccc(C(=O)NCc2ccccc2)cc1", "52.2 µM (inactive)"),
    ("C1OCN2c3nonc3N3COCN4c5nonc5N1C2C43 (centres undefined)", "> 100 µM (inactive)"),
    ("COc1ccc2oc(=O)c(-c3csc(C)n3)cc2c1", "24.7 µM (inactive)"),
    ("CCOC(=O)C(C(N)=O)C1=Nc2cc([N+](=O)[O-])ccc2N/C1=C\\C(=O)c1ccccc1 (centres undefined)", "13.3 µM (inactive)"),
    ("CC(NC(=O)C(NC(=O)OCc1ccccc1)C(C)C)C(=O)NCC(=O)O (stereo not drawn) (Cbz-Val-Ala-Gly-OH; configuration not given here)", "> 100 µM (inactive)"),
    ("N/C(=N/c1ccc(O)cc1)S(=O)(=O)O", "> 100 µM (inactive)"),
    ("C#CCNC(Cc1c[nH]cn1)C(=O)O (centres undefined)", "> 100 µM (inactive)"),
    ("O=C(O)/C=C(/C(=O)O)C12CCN3CC4=CCOC5CC(=O)NC1C5C4CC32 (centres undefined)", "> 100 µM (inactive)"),
    ("C/C(=N/NC(=S)Nc1ccccc1Cl)c1cccc(/C(C)=N\\NC(=S)Nc2ccccc2Cl)n1", "12.2 µM (inactive)"),
    ("O=C(O)CCCc1ccc(N(CCCl)CCCl)cc1", "156 µM (inactive)"),
    ("NC(Cc1ccccc1)(C(=O)O)C(=O)O", "> 100 µM (inactive)"),
    ("COc1ccc2[nH]c3c(c2c1)COc1ccccc1C3=O", "> 100 µM (inactive)"),
    ("CC1(C)[C@H]2CC[C@]1(C)[C@H](OC(=O)NNC(=O)O[C@@H]1C[C@@H]3CC[C@@]1(C)C3(C)C)C2", "13 µM (inactive)"),
    ("CCOC(=O)c1c(SCCCN2CCCCC2)n(-c2ccccc2)c(=S)n(-c2ccccc2)c1=O", "19.4 µM (inactive)"),
    ("C/C(CC(O)(C(F)(F)F)C(F)(F)F)=N\\N", "> 10 µM (inactive)"),
    ("C[C@]12C[C@H](O)[C@H]3[C@@H](CCC4=CC(=O)CC[C@@]43C)[C@@H]1CC[C@@H]2c1csc(-c2ccccc2)n1", "20.1 µM (inactive)"),
    ("CC1=C2C(=CO[C@H](C)[C@H]2C)C(O)=C(C(=O)O)C1=O", "23.2 µM (inactive)"),
    ("O=C(CC(=O)N1N=C(N2c3ccccc3Sc3ccccc32)CC1c1ccccc1)Nc1ccccc1Cl (centres undefined)", "> 100 µM (inactive)"),
]
